// Tmax lookup, one value per entry
# protocol.summary: Pharmacokinetic study in CD-1 mice (gavage, intravenous, intraperitoneal)
# Type: in vivo
# experimental.context: male, CD-1, mouse, plasma, ip, 20 mg/kg, i.p. (20 mg/Kg per Table 3), Mean of 3 mice
# unit: min | format: bare number

These solved cases illustrate the format of a correct answer.
Cc1cnc(C(=O)N[C@@H](CC2CCCCC2)C(=O)N[C@@H](C[C@@H]2CCCNC2=O)C(=O)C(=O)NCc2ccccc2)o1 : 10.8
O=C(NCc1ccccc1)C(=O)[C@H](C[C@@H]1CCNC1=O)NC(=O)[C@H](CC1CCCCC1)NC(=O)c1ccc2ccccc2n1 : 15
O=C(NCc1ccccc1)C(=O)[C@H](C[C@@H]1CCCNC1=O)NC(=O)[C@H](CC1CCCCC1)NC(=O)c1cc2ccccc2o1 : 11

Return the recorded Tmax value; entry: `Cc1cnc(C(=O)N[C@@H](CC2CCCCC2)C(=O)N[C@@H](C[C@@H]2CCNC2=O)C(=O)C(=O)NCc2ccccc2)o1` 15

Supply recorded Tmax for `O=C(NCc1ccccc1)C(=O)[C@H](C[C@@H]1CCNC1=O)NC(=O)[C@H](CC1CCCCC1)NC(=O)c1cc2ccccc2o1` here. 25.2
